system: HCT-15; assay: NCI tumour cell line growth inhibition, 48 h
result_type: GI50 (µM)
Your answer should be a plain number; it is taken to be in µM.

Some compounds with known GI50 results, for comparison:
Task: Entry under review: O/N=C(\CC(O)(C(F)(F)F)C(F)(F)F)c1cccc(Cl)c1 . Reported GI50?
Result: 32.4

Task: Another compound to look at: O=C(N/N=C\c1ccc([N+](=O)[O-])cc1)Nc1ccc2ccccc2c1
Result: 38.6

Task: Another compound to look at: CC1=CC(=O)/C(=C/NC(N)=S)C(=O)O1
Result: 98.4

Others:
Task: Entry under review: N=C(N)SCc1ccc(Cl)c2ccccc12.O=[N+]([O-])c1c(O)c(Cl)cc(Cl)c1Cl . Reported GI50?
Result: 14.3

Task: Another compound to look at: O=C1CCC2(c3ccc(Cl)cc3)Nc3cc(Cl)ccc3N12 (stereo not drawn)
Result: 12.2

Task: Another compound to look at: CC(C)(C)OC(=O)N1C(C2=COc3ccccc3O2)=COc2ccccc21
Result: 31.2
